- ASSAY TARGET: antigen RBD-FC protein (SARS-CoV-2 RBD protein) (SARS-CoV-2, UniProt P0DTC2 319-541)
- EXPERIMENT SUMMARY: thin film interference (Gator), RBD-Fc captured on anti-human Fc probe, nano antibody in solution
- Description: In this example, an instrument Gator® probe life was used to detect an intermolecular interaction with a thin film interference method. A sample to be detected with a concentration not less than 80% and an antigen RBD-FC protein (SARS-CoV-2 RBD protein) with a concentration not less than 90% were prepared. 2. […]
ATTRIBUTE MEASURED: kon (M⁻¹ s⁻¹)
Give just the numeric value; M⁻¹ s⁻¹ need not be written.

Task: Find the recorded kon belonging to NBS1-2 (VHH, also called XBS1-2; nano antibody NBS1-2) VHH: QVQLVESGGGLVQAGDSLRLACAATGRTLSNYIMGWFRQAPGKEPLFVAAISRSGVITKYADSVEGRFTISRDNAKNTAYLQMTSLEPEDTAVYYCAASSSKYMATREYDYWGQGTQVTVSS and report it.
Output: 895

Task: Same for NBS1-57 (VHH, also called nano antibody NBS1-57) VHH: QVQLVESGGGLVQPGASLRLFCVASGRTFSSTGMGWFRQAPGKEREFVAAISGPGDTTYYVDSVKGRFTISRDNAKNTVYLQMNSLKPEDTAVYYCASAGFTWGLYSDFVNSYEYNYWGQGTPVTVSS
Output: 3.8e+06

Task: Check NBS1-3 (VHH, also called nano antibody NBS1-3) VHH: QVQLVESGGGLVQPGASLRLSCAASGRTFSSTGMGWFRQAPGKEREFVAAISGDGDTTYYADSVKGRFTISRDNAKNTVYLQMNSLKPWDTAVYYCASTRFTWGLYSDFVNSYEYDAWGQGTPVTVSS too.
Output: 2.38e+06

Task: Another: NBS1-10 (VHH, also called nano antibody NBS1-10) VHH: QVQLVESGGGLVQPGGSLRLSCAASGRTFSSTGMGWFRQGPGKEREFVAAISGDGDTTYYADSVKGRFTISRDNAKNTVYLQMNSLKPEDTAVYYCASARFTWGLYSDFVNSYEYDAWGQGTPVTVSS
Output: 2.37e+06

The measured values listed here are drawn from patent US12398199.
